- System: HMLE_sh_eGFP viability, CellTiter-Glo luminescence, 72 h
- procedure-summary: cytotoxicity in HMLE control line with eGFP shRNA, dose response, counter-screen for HMLE_sh_ECad selective toxicity project, cell-based, HMLE_sh_eGFP, luminescence (AID 463074);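 further: counterscreen control line to flag general toxicity for the HMLE_sh_ECad screen; potency for loss of viability as luminescence drops below DMSO wells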
Calls of active or inactive are those of the source.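 How the source made its calls: active means AC50 no more than tenfold above the top dose tested, or full inhibition at every dose with a flat fit (cut at about 19 µM in these data); inconclusive means flat curve fit with inhibition between 30% and 70%, or poor fit; inactive means AC50 more than tenfold above the top dose tested.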
Outcomes: active, inactive

INSERT INTO measurements (compound, discrete_label) VALUES
  ('O=C1C2=C(NC(=S)NC2c2ccc(Cl)cc2)NC(c2ccc(Cl)cc2)N1c1ccc(Cl)cc1 (centres undefined)', 'active'),
  ('CN(C)CCNC(=O)c1sc2nc(-c3ccccc3)cc(C(F)(F)F)c2c1N', 'active'),
  ('CC1=C(CO)C(=O)OC([C@@H](C)C2CC[C@H]3C4C[C@H]5O[C@]56[C@@H](O)C=CC(=O)[C@]6(C)C4CC[C@]23C)C1 (some centres undefined)', 'active'),
  ('C/C(=N\NC(=O)c1nnn(-c2nonc2N)c1CN1CCCCC1)c1ccccc1O', 'active'),
  ('COc1ccc(-c2sc3ccccc3c2/C=C/c2ccncc2)cc1', 'active'),
  ('COc1ccc(NS(=O)(=O)c2cc(NC(=O)c3ccc(=O)[nH]c3)ccc2N2CCCC2)cc1', 'active'),
  ('O=c1[nH]c(CN2CCN(c3ccccn3)CC2)nc2c(Br)cc(Br)cc12', 'active'),
  ('O=c1[nH]c(NNC(=S)NCc2ccccc2)nc2c1C1(CCCCC1)Cc1ccccc1-2', 'active'),
  ('CCn1c(N2CCN(S(=O)(=O)c3ccc(F)cc3)CC2)nc2ccccc21', 'inactive');

* * *

- Test system: HMLE_sh_eGFP viability, CellTiter-Glo luminescence, 72 h
- procedure-summary: cytotoxicity in HMLE control line with eGFP shRNA, dose response, counter-screen for HMLE_sh_ECad selective toxicity project, cell-based, HMLE_sh_eGFP, luminescence (AID 463074);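 further: counterscreen control line to flag general toxicity for the HMLE_sh_ECad screen; potency for loss of viability as luminescence drops below DMSO wells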
The source made the active and inactive calls.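 How the source made its calls: active means AC50 no more than tenfold above the top dose tested, or full inhibition at every dose with a flat fit (cut at about 19 µM in these data); inconclusive means flat curve fit with inhibition between 30% and 70%, or poor fit; inactive means AC50 more than tenfold above the top dose tested.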
Outcomes: active, inactive

INSERT INTO measurements (compound, discrete_label) VALUES
  ('COc1c(Cl)cc(Cl)cc1/C=C/C(=O)c1ccc(NC(=O)c2cccs2)cc1', 'active'),
  ('Clc1cc2cccnc2c2ncccc12', 'active'),
  ('CCNC(=O)c1c(NC(=O)c2cc(-c3cc(C)ccc3O)n[nH]2)sc2c1CCCC2', 'active'),
  ('O=C(c1ccco1)c1nnn(Cc2ccccc2)c1-c1ccccc1', 'active'),
  ('CCCCc1ccc(NC(=O)Nc2cc(C)nn2C)cc1', 'active'),
  ('CC(C)C[C@H](NC(=O)c1nc[nH]c1C(=O)NC(c1ccccc1)c1ccccc1)C(=O)OC(C)(C)C', 'active'),
  ('Cc1ccc(-c2nc(Nc3cccc(O)c3)c3ccccc3n2)cc1', 'active'),
  ('O=c1cc(-c2ccccc2)[nH]n1-c1ccc([N+](=O)[O-])cc1', 'active'),
  ('COc1ccc(NS(=O)(=O)c2cc(-c3cnc(C4CC4)o3)ccc2C)cc1', 'active'),
  ('CC(C)=CCOc1ccc([C@@H]2COc3c(ccc4c3C=CC(C)(C)O4)C2)c(O)c1', 'active'),
  ('CCN(CC)CCSc1nnc2c3ccccc3n(Cc3ccccc3)c2n1', 'active'),
  ('CCn1cc(C(=O)N[C@H](C)c2ccccc2)c(=O)c2cc(F)c(N3CCN(C)CC3)cc21', 'active'),
  ('CCCC(=O)NC(c1ccco1)c1cc([N+](=O)[O-])c2cccnc2c1O (stereo not drawn)', 'active'),
  ('Nc1ccc(N=Nc2ccccc2)c2ccccc12', 'active'),
  ('Cc1cc(N2C(=O)C=CC2=O)c([N+](=O)[O-])cc1C', 'active'),
  ('Cc1cccc(NC(=O)c2nc[nH]c2C(=O)N[C@@H](C)c2ccccc2)c1', 'active'),
  ('CN1CCN(Cc2nc3ccccc3c(=O)n2Cc2nc(-c3ccc4ccccc4c3)cs2)CC1', 'active'),
  ('Cc1ccc(CN2CCSc3ccc(C(=O)NCc4ccco4)cc32)cc1', 'inactive'),
  ('Oc1ccc(N=Nc2ccc(Br)cc2)c(O)c1', 'active'),
  ('Brc1cccc(OCCN2CCc3ccccc3C2)c1', 'inactive'),
  ('Oc1ccc(-c2cnc(-c3ccc(O)cc3)nc2)cc1', 'active'),
  ('CCN1C(=O)C(CC(=O)Nc2ccc(F)cc2)N(CCCN2CCN(c3ccc(F)cc3)CC2)C1=S (stereo not drawn)', 'active'),
  ('O=C(O)CCN1C(=O)C(=C2CCCCCC2)SC1=S', 'inactive');
